Molecular target: Grb2 SH2 (UniProt P62993)
Sequence (P62993 whole entry, looked up): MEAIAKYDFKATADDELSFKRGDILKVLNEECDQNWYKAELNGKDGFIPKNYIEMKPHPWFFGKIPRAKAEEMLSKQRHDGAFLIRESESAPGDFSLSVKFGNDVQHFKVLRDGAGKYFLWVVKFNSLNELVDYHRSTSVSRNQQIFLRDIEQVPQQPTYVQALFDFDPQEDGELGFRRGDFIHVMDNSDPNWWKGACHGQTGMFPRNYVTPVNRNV
Assay: SH2 binding enrichment of the phosphorylated peptide, bacterial display (enrichment ratio); higher = better substrate or ligand; peptides without Tyr show the background
observation type: SH2 binding enrichment
Quick one: just the number, no unit, thanks!

Query: Return SH2 binding enrichment for the following sequence: SEDANYMRVSC [TTC3_Y1288_K1289M]
Result: 0.819

Query: # return recorded SH2 binding enrichment for entry KVGPGSLGSGG [RET_Y826_Y826S]
Result: 0.778

Query: Identify the reported SH2 binding enrichment for the following entry. GETEQYVGGGG [FAT4_Y4980_A4977T]
Result: 0.798

---

Task for the reader: assign each of the following sequences its reported phosphorylation enrichment.
Molecular target: Jak2 (UniProt O60674)
Sequence (O60674 whole entry, looked up): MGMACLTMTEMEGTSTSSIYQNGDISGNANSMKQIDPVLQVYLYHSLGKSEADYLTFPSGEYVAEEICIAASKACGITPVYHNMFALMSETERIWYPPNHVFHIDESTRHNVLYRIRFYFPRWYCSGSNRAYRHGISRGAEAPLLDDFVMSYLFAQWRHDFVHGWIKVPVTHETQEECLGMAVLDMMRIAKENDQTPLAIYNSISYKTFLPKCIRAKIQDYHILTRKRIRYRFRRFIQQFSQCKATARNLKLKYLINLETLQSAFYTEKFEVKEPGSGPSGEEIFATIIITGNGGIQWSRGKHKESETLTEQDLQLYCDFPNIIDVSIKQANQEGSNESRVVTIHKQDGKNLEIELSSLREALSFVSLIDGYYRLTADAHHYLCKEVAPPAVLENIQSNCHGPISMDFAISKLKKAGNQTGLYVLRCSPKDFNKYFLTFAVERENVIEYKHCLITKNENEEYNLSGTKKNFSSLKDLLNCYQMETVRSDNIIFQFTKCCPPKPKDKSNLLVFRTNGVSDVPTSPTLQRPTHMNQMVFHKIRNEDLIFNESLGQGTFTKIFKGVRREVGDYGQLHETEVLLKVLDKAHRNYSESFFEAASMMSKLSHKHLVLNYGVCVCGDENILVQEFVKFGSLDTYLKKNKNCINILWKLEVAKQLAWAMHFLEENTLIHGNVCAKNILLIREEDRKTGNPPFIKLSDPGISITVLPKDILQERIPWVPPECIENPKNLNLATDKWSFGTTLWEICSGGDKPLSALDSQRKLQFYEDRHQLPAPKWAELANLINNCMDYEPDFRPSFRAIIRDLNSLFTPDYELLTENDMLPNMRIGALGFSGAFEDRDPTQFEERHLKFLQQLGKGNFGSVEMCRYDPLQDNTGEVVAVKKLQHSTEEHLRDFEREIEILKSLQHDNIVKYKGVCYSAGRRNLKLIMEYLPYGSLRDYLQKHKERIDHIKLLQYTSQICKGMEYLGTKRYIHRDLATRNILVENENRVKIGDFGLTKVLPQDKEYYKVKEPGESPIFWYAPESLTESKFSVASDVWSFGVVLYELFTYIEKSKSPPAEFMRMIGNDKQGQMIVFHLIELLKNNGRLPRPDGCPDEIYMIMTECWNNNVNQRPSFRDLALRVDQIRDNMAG
Assay: phosphorylation enrichment, bacterial display (enrichment ratio); higher = better substrate or ligand; peptides without Tyr show the background

Query: Please report phosphorylation enrichment with Jak2 (UniProt O60674) for item SVVVPYEPPEF [TP53_Y220_V225F] .
Result: 0.993

Query: Determine reported phosphorylation enrichment for ALDHKYHGGGG [HBB_Y146_A143D] ; test system: Jak2 (UniProt O60674).
Result: 0.455

Query: Enter measured phosphorylation enrichment, system Jak2 (UniProt O60674), for the sequence shown: RDMMDYMLQGV [CYP21A2_Y259]
Result: 1.63

Query: Report measured phosphorylation enrichment on Jak2 (UniProt O60674); entry: DKGTLYIVEQI [PLBD1_Y375]
Result: 1.03

Query: Report its phosphorylation enrichment with Jak2 (UniProt O60674) as the test system: LLINKYGLSDH [SCP2_Y151_A155D]
Result: 1.19

Query: # return phosphorylation enrichment of TKDTIYKQPMF [GBA_Y451_F450I] (system: Jak2 (UniProt O60674))
Result: 0.907

Query: With Jak2 (UniProt O60674) as the test system, provide measured phosphorylation enrichment for this sequence: FLRKEYGGVNV [CBR3_Y81_L84V]
Result: 0.598

Query: # assay system Jak2 (UniProt O60674): give phosphorylation enrichment of IRKTEYPFSSE [ATP2C1_Y452_A450T]
Result: 0.599

Query: Find phosphorylation enrichment for DLLNSYTENEG [HSPA4L_Y600_I601T] on Jak2 (UniProt O60674) and write it down.
Result: 1.16

Query: State phosphorylation enrichment on Jak2 (UniProt O60674). Entry: GMAHNYRNSSQ [AASS_Y188]
Result: 0.434

Query: GET phosphorylation enrichment | system: Jak2 (UniProt O60674) | item: SSQTVYQRVEG [TFR2_Y23]
Result: 0.596

Query: Answer with phosphorylation enrichment of GEDLSYGDLPP [IRS1_Y151_V154L] measured for Jak2 (UniProt O60674).
Result: 1.22

Query: Write phosphorylation enrichment of SSNPEYLSASD [INSR_Y999] ; system used: Jak2 (UniProt O60674)
Result: 0.961

Query: Fill: phosphorylation enrichment (Jak2 (UniProt O60674)) for this sequence ENEGTYVCIAA [ADAMTSL3_Y1365_T1370A]
Result: 1.05

Query: Lab note: record phosphorylation enrichment of YGIAQYCCRMG [LRRK2_Y2023] tested on Jak2 (UniProt O60674).
Result: 0.482

Query: Give phosphorylation enrichment; test system Jak2 (UniProt O60674); sequence IFGVSYDEFRF [CFTR_Y512_YF]
Result: 1.09

Query: # lookup: Jak2 (UniProt O60674) phosphorylation enrichment, key = SDYSSYARTSI [TERT_Y949]
Result: 0.725

Query: Given DLVLQYLRVPL [F9_Y371_A366D] , report its phosphorylation enrichment on Jak2 (UniProt O60674).
Result: 3.15

---

Target: Jak2 (UniProt O60674)
Assay: phosphorylation enrichment, bacterial display (enrichment ratio); higher = better substrate or ligand; peptides without Tyr show the background
observation type: phosphorylation enrichment

Query: Fill: phosphorylation enrichment (Jak2 (UniProt O60674)) for this sequence QPGDIYHQTWA [GBA_Y244]
Result: 0.938

Query: Please respond with reported phosphorylation enrichment (system Jak2 (UniProt O60674)) for DEQKKYYNAMK [SCN5A_Y1494_E1489D] .
Result: 0.531

Query: Send back Jak2 (UniProt O60674) phosphorylation enrichment of TEALYYTDDTA [ADPRS_Y75] only.
Result: 0.833

Query: Write down measured phosphorylation enrichment (Jak2 (UniProt O60674)) for this sequence. SRFQFYFQQKG [CHKB_Y381]
Result: 1.47

Query: GET phosphorylation enrichment where system = Jak2 (UniProt O60674) and item = CTTIHYNFMHN [TP53_Y234_C238H_YF]
Result: 0.799

Query: Please report phosphorylation enrichment with Jak2 (UniProt O60674) for item SHSMRYFDTAV [HLA-C_Y31] .
Result: 0.492

Query: Give phosphorylation enrichment for this entry on Jak2 (UniProt O60674): QNTGDYCDLFG [PTPN11_Y62_Y63C_YF]
Result: 1.3

Query: Fill in: phosphorylation enrichment on Jak2 (UniProt O60674), entry ISSLLYELLEE [TRPC6_Y896_R895L]
Result: 1.21

Query: Specify the recorded phosphorylation enrichment for GEHSIYCTVNN [CD55_Y266] , system: Jak2 (UniProt O60674).
Result: 1.22

Query: Please tell me the measured phosphorylation enrichment for VDHFGYTKDDK [APOB_Y740] ; system: Jak2 (UniProt O60674).
Result: 0.762

Query: Please indicate recorded phosphorylation enrichment of RTTIHYNFMCN [TP53_Y234_C229R_YF] measured with Jak2 (UniProt O60674).
Result: 1.29

Query: Fill in: phosphorylation enrichment on Jak2 (UniProt O60674), entry RASDYYSQQMA [GBP6_Y334_A331S]
Result: 0.571

Query: Report value: phosphorylation enrichment, system: Jak2 (UniProt O60674), sequence: KVITDYFVDMK [MPP4_Y566_YF]
Result: 0.858

Query: Look up and report measured phosphorylation enrichment (Jak2 (UniProt O60674)) for the following sequence: SSPQLYLVPFL [TAF4_Y652_P651L]
Result: 7

Query: Please look at DFPIGYPSFLA [TBCK_Y153_YF] and tell me its recorded phosphorylation enrichment on Jak2 (UniProt O60674).
Result: 0.748

Query: Lab note: Jak2 (UniProt O60674) assay, enter phosphorylation enrichment for LFQAKYQIRFR [CRLF1_Y272_YF] here
Result: 1.64

Query: Fill in phosphorylation enrichment for RYFTTYDTNGR [CLCA1_Y665] tested with Jak2 (UniProt O60674).
Result: 0.742

Query: Find phosphorylation enrichment for SYCYRYRCAPR [SUMF1_Y344_A348P] on Jak2 (UniProt O60674) and write it down.
Result: 0.459

Query: Lab note: record phosphorylation enrichment of PLDGEYFTPQI [TP53_Y327_L330P] tested on Jak2 (UniProt O60674).
Result: 0.978

Query: Look up Jak2 (UniProt O60674) data: phosphorylation enrichment of NRSSLYLVAGP [KIAA1614_Y1083] , then report it.
Result: 0.698

Query: Report phosphorylation enrichment from Jak2 (UniProt O60674) testing of KLSFSYGWALQ [ALDOB_Y302_R304W]
Result: 1.72

Query: Find the measured phosphorylation enrichment of TCFDKYTGSTF [FN1_Y101_N104S_YF] with Jak2 (UniProt O60674) as test system.
Result: 0.646

Query: Give phosphorylation enrichment for this entry on Jak2 (UniProt O60674): TPIFPYLLPKS [PLD2_Y580_T577I_YF]
Result: 0.723

Query: Write down measured phosphorylation enrichment (Jak2 (UniProt O60674)) for this sequence. LRAGVYHEKDQ [DNM2_Y626_P627H]
Result: 1.08

Query: Determine reported phosphorylation enrichment for VTRAKYFIRDE [GNAS_Y339] ; test system: Jak2 (UniProt O60674).
Result: 0.622

Query: Give phosphorylation enrichment only, for RVILRYVNPGT [LAMA3_Y791] , using Jak2 (UniProt O60674) data.
Result: 0.947

Query: Please tell me the measured phosphorylation enrichment for ATGLIYIGSHD [AASDH_Y870_T865A] ; system: Jak2 (UniProt O60674).
Result: 0.809

Query: State recorded phosphorylation enrichment with Jak2 (UniProt O60674), entry HNLNFYKKTTN [FGFR3_Y648_D646N_YF] , no comment.
Result: 0.832

Query: // fetch phosphorylation enrichment for ARRHPYFFAPE [ALB_Y172_Y174F] ; system: Jak2 (UniProt O60674)
Result: 0.726

Query: Enter measured phosphorylation enrichment, system Jak2 (UniProt O60674), for the sequence shown: FGAHNYHPLPV [OAT_Y55_YF]
Result: 0.58

Query: Recall the reported phosphorylation enrichment of LHQSTYQRFDV [SLC7A14_Y693_YF] when tested on Jak2 (UniProt O60674).
Result: 0.652

Query: Please tell me the measured phosphorylation enrichment for KSAAIYNPVIY [RHO_Y301] ; system: Jak2 (UniProt O60674).
Result: 0.573

Query: Provide the reported phosphorylation enrichment (system: Jak2 (UniProt O60674)) for YRAVKYLQMVG [AVPR2_Y117_C112Y]
Result: 0.766

Query: Quote phosphorylation enrichment with test system Jak2 (UniProt O60674) for LPQDGYRIVQH [PTPRT_Y1329_R1324L]
Result: 0.575

Query: Enter phosphorylation enrichment (test system Jak2 (UniProt O60674)) for SENAFYLSPHI [COL6A3_Y2827_D2831H]
Result: 3.25

Query: Provide measured phosphorylation enrichment on Jak2 (UniProt O60674) for ETGEPYRLSPE [EIF4G1_Y311] please.
Result: 1

Query: Give measured phosphorylation enrichment for GIVEDYRPRFF [ACVRL1_Y421_P424R_YF] (Jak2 (UniProt O60674)).
Result: 0.816

Query: Answer with phosphorylation enrichment of EEAAGCAQESQ [CAMKV_Y491_Y491C] measured for Jak2 (UniProt O60674).
Result: 1.06

Query: GET phosphorylation enrichment where system = Jak2 (UniProt O60674) and item = VVEVTYDDVPI [FLNB_Y1308]
Result: 1.1

Query: Write down measured phosphorylation enrichment (Jak2 (UniProt O60674)) for this sequence. LAVGDYMRRQK [ATM_Y1915_V1913G]
Result: 0.691

Query: // fetch phosphorylation enrichment for EKAEVYGSENE [RIOK2_Y348] ; system: Jak2 (UniProt O60674)
Result: 0.911

Query: Enter phosphorylation enrichment (test system Jak2 (UniProt O60674)) for FKDYFYCWNTF [AICDA_Y146]
Result: 3.71

Query: # return phosphorylation enrichment for NTGDYCDLYGG [PTPN11_Y63_Y63C] , test system: Jak2 (UniProt O60674)
Result: 1.04

Query: Provide phosphorylation enrichment, tested on Jak2 (UniProt O60674), for GEAEQYVGGGG [FAT4_Y4980] .
Result: 0.746

Query: Write down the reported phosphorylation enrichment (system: Jak2 (UniProt O60674)) of PLDGGYFTLQI [TP53_Y327_E326G]
Result: 5.04

Query: Using Jak2 (UniProt O60674) as the test system, report measured phosphorylation enrichment of TFEYRYLEDRD [CNOT3_Y746] .
Result: 1.02

Query: Look up Jak2 (UniProt O60674) data: phosphorylation enrichment of KIVQDYLEKFF [MMP8_Y36_T32I_YF] , then report it.
Result: 1.02

Query: Write down the reported phosphorylation enrichment (system: Jak2 (UniProt O60674)) of REGAKYVSHCA [ASS1_Y113_G117C]
Result: 0.652
